src = ChEMBL document CHEMBL1201862

Task for the reader: assign each of the following molecules its reported EC50.
Tested on: Streptococcus
PROCEDURE DETAILS: GAS UMAA2166 growth inhibition – luminescence, BacTiterGlo, counter-screen for streptokinase expression inhibitor project, dose response (AID 1915);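 also: potency for reduction of bacterial viability or growth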
Type: functional, organism-based
Active and inactive are the calls of the source.

QUERY: Quick check: EC50 of CC(C)(C)c1cc(C(=O)NNc2cc(C(F)(F)F)ccc2Cl)n(Cc2ccccc2)n1 ?
RESULT: 8.74 µM (active)

QUERY: Quick check: EC50 of CC(C)C(C(=O)Nc1nccs1)c1ccc(Cl)cc1 (stereo unspecified) ?
RESULT: > 150 µM (not active)

QUERY: Quick check: EC50 of CCc1ccc2[nH]c(O)c(N=Nc3nc(-c4ccccc4)cs3)c2c1 ?
RESULT: 27.3 µM (active)

QUERY: Quick check: EC50 of O=C(Nc1ccc(N2CCN(C(=O)c3ccccc3)CC2)c(Cl)c1)c1cccnc1 ?
RESULT: 14.7 µM (active)

QUERY: Quick check: EC50 of Clc1ccc(N2COC3c4cccc5cccc(c45)C32)cc1 (stereo unspecified) ?
RESULT: > 150 µM (not active)

QUERY: Quick check: EC50 of Cc1ccc(/C=C/c2ccc(=O)n(Cc3ccccc3Cl)n2)cc1 ?
RESULT: > 50 µM (not active)

---

PROCEDURE DETAILS: microbe, parasite or virus in culture
Assay type: functional
COND: Mycobacterium tuberculosis
Structures can show the parent of a compound that is named as a salt. Calls of active or inactive are those of the source.
RECORDED METRIC: CC50

QUERY: Quick check: CC50 of Cc1cc(NC2CCCCC2)nc(-c2ccccc2O)n1 ?
RESULT: > 40 µM (active)

QUERY: Quick check: CC50 of Cc1nn(Cc2ccccc2)c(C)c1C(=O)OCC(=O)c1cc(C)n(CC(F)(F)F)c1C ?
RESULT: > 40 µM (active)

QUERY: Quick check: CC50 of CCCCC(CC)CN=C(N)N=C(N)NCCCCCCNC(N)=NC(N)=NCC(CC)CCCC (stereo not given) [ALEXIDINE HYDROCHLORIDE] ?
RESULT: 10.5 µM (active)

QUERY: Quick check: CC50 of Cc1nn(Cc2ccccc2)c(C)c1NC(=O)c1cc2nc(-c3ccco3)cc(C(F)(F)F)n2n1 ?
RESULT: > 40 µM (active)

QUERY: Quick check: CC50 of C/C(Cl)=C\COc1cc(C)nc2c(Br)cccc12 ?
RESULT: > 40 µM (active)

---

Task for the reader: assign each of the following compounds its reported IC50.
TARGET OF ASSAY: Induced myeloid leukemia cell differentiation protein Mcl-1 (Homo sapiens)
Sequence (Q07820 whole entry): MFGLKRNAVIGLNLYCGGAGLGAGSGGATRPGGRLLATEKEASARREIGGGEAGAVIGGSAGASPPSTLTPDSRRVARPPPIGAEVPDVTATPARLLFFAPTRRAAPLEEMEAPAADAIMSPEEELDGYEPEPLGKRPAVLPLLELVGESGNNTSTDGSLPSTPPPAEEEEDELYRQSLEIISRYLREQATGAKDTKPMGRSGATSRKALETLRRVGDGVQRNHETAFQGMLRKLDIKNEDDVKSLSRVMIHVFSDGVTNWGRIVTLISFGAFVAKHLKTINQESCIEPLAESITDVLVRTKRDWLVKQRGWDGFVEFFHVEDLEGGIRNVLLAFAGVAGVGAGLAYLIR
Format: functional
Activity calls are given as the source filed them.

QUERY: Quick check: IC50 of CCOC(=O)c1[nH]c2c(c1C)C(=O)CC(c1ccco1)C2 (configuration not stated) ?
RESULT: 6.08 µM (active)

QUERY: Quick check: IC50 of Nc1ccc2c(c1Cl)C(=O)c1ccc(N)c(Cl)c1C2=O ?
RESULT: 2.76 µM (active)

QUERY: Quick check: IC50 of CC1CCN(c2ccc(NC(=O)Cc3ccccc3)cc2)CC1 ?
RESULT: 5.35 µM (not active)

QUERY: Quick check: IC50 of O=C1CC(c2ccc(O)c(O)c2)Oc2c1ccc(O)c2O (configuration not stated) ?
RESULT: 2.99 µM (active)

QUERY: Quick check: IC50 of CNc1ccc(Br)cc(C(=O)/C=C/c2cccc(OC)c2)c1=O ?
RESULT: 1.92 µM (active)

QUERY: Quick check: IC50 of O=C1NN(c2ccc(Cl)c(Cl)c2)C(=O)/C1=C/c1cccc(OC(=O)c2cccs2)c1 ?
RESULT: 3.81 µM (active)

QUERY: Quick check: IC50 of O=c1nc2s/c(=C\c3ccc(-c4ccccc4[N+](=O)[O-])o3)c(=O)n2nc1-c1ccccc1 ?
RESULT: 9.66 µM (active)

QUERY: Quick check: IC50 of CCN(c1ccc(NC(=O)COC(=O)c2cc3ccccc3oc2=O)cc1)C(C)C ?
RESULT: 25.3 µM (not active)

QUERY: Quick check: IC50 of COc1cc(NCCC(=O)c2cccs2)c(OC)cc1Cl ?
RESULT: 4.38 µM (not active)

QUERY: Quick check: IC50 of CN(C)c1ccc(NC(=O)Nc2ccc3snnc3c2)cc1 ?
RESULT: 0.455 µM (active)

QUERY: Quick check: IC50 of O=C(O)c1ccc(NS(=O)(=O)c2ccc3c(c2)C2C=CCC2C(c2ccccc2F)N3)cc1 (configuration not stated) ?
RESULT: 2.58 µM (active)

QUERY: Quick check: IC50 of Cc1ccc(N2NC(=O)/C(=C\c3cc4c(cc3[N+](=O)[O-])OCO4)C2=O)cc1C ?
RESULT: 4.66 µM (active)

---

PROCEDURE DETAILS: NIH-3T3 fibroblast cytotoxicity, dose response, cytotoxicity control, cell-based, fluorescence, Alamar Blue, secondary assay (AID 2327);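 also: NIH-3T3 mouse fibroblasts cultured with fluconazole at 8 µg/mL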
Assay type: functional
Active and inactive are the calls of the source.
RECORDED METRIC: EC50

QUERY: Quick check: EC50 of COc1ccccc1NC(=O)NNC(=O)c1cc2ccccc2cc1O ?
RESULT: > 160 µM (inactive)

QUERY: Quick check: EC50 of COC1=CC(=O)C(O)=C(CCCCCCC/C=C/CCCCCCCC2=C(O)C(=O)C=C(OC)C2=O)C1=O ?
RESULT: > 160 µM (inactive)

QUERY: Quick check: EC50 of O=C(CSc1nnc(-c2ccco2)n1Cc1ccccc1)OC1CCCCC1 ?
RESULT: > 150 µM (inactive)

QUERY: Quick check: EC50 of CC(Sc1ccc(Cl)cc1)C(=O)NCc1ccc2c(c1)OCO2 (configuration not stated) ?
RESULT: > 150 µM (inactive)

QUERY: Quick check: EC50 of COc1ccc(-c2nnc(NC(=O)c3ccc(F)cc3)o2)cc1 ?
RESULT: > 150 µM (inactive)

QUERY: Quick check: EC50 of COC(=O)c1c(C)n(-c2ccccc2)c2ccc(O)cc12 ?
RESULT: 2.59 µM (inconclusive)

QUERY: Quick check: EC50 of O=C(CCl)Nc1ccc(-c2ccccc2)cc1 ?
RESULT: 4.59 µM (inconclusive)

---

TARGET OF ASSAY: Heat shock factor protein 1 (Mus musculus, UniProt P38532)
Sequence (P38532 whole entry): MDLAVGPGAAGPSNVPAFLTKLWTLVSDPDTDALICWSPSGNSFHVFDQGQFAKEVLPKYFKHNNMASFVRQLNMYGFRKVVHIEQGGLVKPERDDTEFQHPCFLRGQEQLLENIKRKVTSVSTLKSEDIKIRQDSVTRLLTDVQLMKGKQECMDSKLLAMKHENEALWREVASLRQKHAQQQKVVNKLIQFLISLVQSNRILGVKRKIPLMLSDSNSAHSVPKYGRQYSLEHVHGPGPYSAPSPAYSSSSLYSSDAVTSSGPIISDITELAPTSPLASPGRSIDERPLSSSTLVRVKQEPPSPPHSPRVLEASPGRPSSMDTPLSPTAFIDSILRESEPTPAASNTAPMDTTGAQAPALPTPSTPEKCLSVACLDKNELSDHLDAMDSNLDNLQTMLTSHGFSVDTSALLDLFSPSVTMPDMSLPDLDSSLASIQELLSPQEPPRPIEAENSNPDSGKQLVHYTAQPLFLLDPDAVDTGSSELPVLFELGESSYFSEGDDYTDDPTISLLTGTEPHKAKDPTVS
PROCEDURE DETAILS: decrease of HSF1-responsive luciferase luminescence – cell-based, NIH3T3, dose retest, confirmation (AID 2382);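 also: NIH3T3 fibroblasts with HSF1-driven luciferase reporter stressed by proteasome inhibitor MG132; luminescence from HSF1-driven luciferase expression after 8 hours of MG132 stress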
Type: functional
The source made the active and inactive calls.
RECORDED METRIC: EC50

QUERY: Quick check: EC50 of O=C1OC2(CCCCC2)OC(O)=C1/C=N/c1nccs1 ?
RESULT: > 195 µM (not active)

QUERY: Quick check: EC50 of COC(=O)c1ccc(N=NNc2ccc(C(=O)OC)cc2)cc1 ?
RESULT: > 195 µM (not active)

QUERY: Quick check: EC50 of COc1ccc(CNC(C)CCc2ccccc2)cc1 (stereo unspecified) ?
RESULT: > 195 µM (not active)

QUERY: Quick check: EC50 of CC(C)CC(C(=O)Nc1cccc(O)c1)N1C(=O)c2ccccc2C1=O (stereo unspecified) ?
RESULT: > 195 µM (not active)

QUERY: Quick check: EC50 of CCc1ccc(C(=O)Cn2ncc(Cl)c(Cl)c2=O)cc1 ?
RESULT: 5.77 µM (active)

QUERY: Quick check: EC50 of CSCCC(NS(=O)(=O)c1cccs1)C(=O)NCc1ccccc1 (stereo unspecified) ?
RESULT: > 195 µM (not active)

---

TARGET OF ASSAY: UniProt:P9WQ59
Sequence (P9WQ59 whole entry): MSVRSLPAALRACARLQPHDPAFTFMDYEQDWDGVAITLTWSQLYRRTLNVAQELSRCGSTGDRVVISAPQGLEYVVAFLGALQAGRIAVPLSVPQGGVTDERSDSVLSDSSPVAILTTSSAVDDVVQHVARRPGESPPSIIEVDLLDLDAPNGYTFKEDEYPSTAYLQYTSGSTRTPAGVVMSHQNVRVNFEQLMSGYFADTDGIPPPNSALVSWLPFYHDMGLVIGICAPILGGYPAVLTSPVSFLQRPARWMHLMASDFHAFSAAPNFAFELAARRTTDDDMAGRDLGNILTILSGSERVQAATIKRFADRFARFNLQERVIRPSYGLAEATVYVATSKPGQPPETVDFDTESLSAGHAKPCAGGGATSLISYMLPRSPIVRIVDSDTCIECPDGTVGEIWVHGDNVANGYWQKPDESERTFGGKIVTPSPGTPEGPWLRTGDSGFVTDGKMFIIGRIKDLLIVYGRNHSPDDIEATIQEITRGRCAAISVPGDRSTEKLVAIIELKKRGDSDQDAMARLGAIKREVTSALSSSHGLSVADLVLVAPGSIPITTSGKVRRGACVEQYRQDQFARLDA
PROCEDURE DETAILS: Fluorescence polarization aasay to screen for inhibitors that compete for the binding of FadD28 to a bisubstrate Measured in Biochemical System Using Plate Reader - 2147-01_Inhibitor_Dose_CherryPick_Activity.
Type: functional, Mycobacterium tuberculosis H37Rv
Activity calls are given as the source filed them.
Output constraint: value belongs to active, inactive

QUERY: Hi, sorry to bother you, what did the test record for CCn1c(CSc2n[nH]c(N)n2)nc2cc(C(=O)O)ccc21 ?
RESULT: active

QUERY: Hi, sorry to bother you, what did the test record for COc1cc(/C=C2/C(=O)NN(c3cccc(C)c3)C2=O)cc([N+](=O)[O-])c1O ?
RESULT: active

QUERY: Hi, sorry to bother you, what did the test record for N=c1c2c(-c3ccccc3)c(-c3ccccc3)n(Cc3ccco3)c2ncn1CCCN1CCOCC1 ?
RESULT: active

QUERY: Hi, sorry to bother you, what did the test record for O=C(NCCSCc1ccccc1)c1ccc(Cl)c(S(=O)(=O)N2CCOCC2)c1 ?
RESULT: inactive

QUERY: Hi, sorry to bother you, what did the test record for Cc1ccc(CNC(=O)C(Cc2ccccc2)NS(=O)(=O)c2ccc(Br)s2)cc1 (stereo unspecified) ?
RESULT: active

QUERY: Hi, sorry to bother you, what did the test record for Cc1ccc(NC(=O)CN2C(=O)S/C(=C\c3ccc(-c4cccc(C(=O)O)c4C)o3)C2=O)cc1C ?
RESULT: active
